All figures here come from PubChem BioAssay AID1845215.

Tested on: SW 1271 complex tumor spheroid viability
assay procedure: Anticancer human tumor SW 1271 cell line growth inhibition;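 note: spheroids exposed to agents for seven days before readout; percent of DMSO vehicle control luminescence so 100% = vehicle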
experimental conditions: second compound 0.003 µM; first compound 0.00949 µM; active compounds read low
recorded endpoint: viability, T/C (%)
Report only the number, with the unit % understood.

| compound | measurement units | viability, T/C |
| --- | --- | --- |
| Cc1sc2c(c1C)C(c1ccc(Cl)cc1)=NC(CC(=O)Nc1ccc(O)cc1)c1nnc(C)n1-2 (stereo unspecified) + CC[C@@]1(O)C(=O)OCc2c1cc1n(c2=O)Cc2cc3c(CN(C)C)c(O)ccc3nc2-1 | % | 81.4 |

q: Request the reported viability, T/C associated with Cc1sc2c(c1C)C(c1ccc(Cl)cc1)=NC(CC(=O)Nc1ccc(O)cc1)c1nnc(C)n1-2 (stereo unspecified) + COc1cc2c(cc1O)CCNC21CSC2c3c(OC(C)=O)c(C)c4c(c3C(COC1=O)N1C(O)C3Cc5cc(C)c(OC)c(O)c5C(C21)N3C)OCO4
a: 0.11

q: Which viability, T/C value is on record for CNCc1ccc(-c2cc(-c3nc(-c4ccc(S(=O)(=O)C(C)C)cc4)cnc3N)on2)cc1 + CC[C@@]1(O)C(=O)OCc2c1cc1n(c2=O)Cc2cc3c(CN(C)C)c(O)ccc3nc2-1 ?
a: 84.7

q: Fill in: viability, T/C of CNCc1ccc(-c2cc(-c3nc(-c4ccc(S(=O)(=O)C(C)C)cc4)cnc3N)on2)cc1 + COc1cc2c(cc1O)CCNC21CSC2c3c(OC(C)=O)c(C)c4c(c3C(COC1=O)N1C(O)C3Cc5cc(C)c(OC)c(O)c5C(C21)N3C)OCO4 is ___
a: 0.11

q: What value of viability, T/C has been recorded for this entry: Cn1ncnc1[C@H]1c2n[nH]c(=O)c3cc(F)cc(c23)N[C@@H]1c1ccc(F)cc1 + COc1cc2c(cc1O)CCNC21CSC2c3c(OC(C)=O)c(C)c4c(c3C(COC1=O)N1C(O)C3Cc5cc(C)c(OC)c(O)c5C(C21)N3C)OCO4
a: 0.1

q: Given the compound Cn1ncnc1[C@H]1c2n[nH]c(=O)c3cc(F)cc(c23)N[C@@H]1c1ccc(F)cc1 + CC[C@@]1(O)C(=O)OCc2c1cc1n(c2=O)Cc2cc3c(CN(C)C)c(O)ccc3nc2-1 , what is its reported viability, T/C?
a: 27.6

* * *

Test system: SW 1271 complex tumor spheroid viability
assay procedure: Anticancer human tumor SW 1271 cell line growth inhibition;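 note: spheroids exposed to agents for seven days before readout; percent of DMSO vehicle control luminescence so 100% = vehicle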
experimental conditions: second compound 0.3 µM; first compound 3.16 µM; active compounds read low
Procedure: Multicellular complex tumor spheroid response to DNA repair inhibitors in combination with DNA-damaging drugs This study explores the anticancer activities of DNA-damaging drugs and inhibitors of DNA damage repair, both as single agents and in combinations. […] Twenty-six patient-derived or established malignant cell lines were evaluated representing sarcoma, melanoma, small cell lung cancer (SCLC), non-small cell lung cancer (NSCLC), as well as bladder, ovarian and pancreatic cancers. […]
recorded endpoint: viability, T/C (%)
Numeric only. Scale: %

| compound | system tested | viability, T/C / % |
| --- | --- | --- |
| COc1ccc([C@@H](O)c2cc(-c3ncnc4cc(N5CCOCC5)ccc34)c(F)cc2Cl)nn1 + CC[C@@]1(O)C(=O)OCc2c1cc1n(c2=O)Cc2cc3c(CN(C)C)c(O)ccc3nc2-1 | SW 1271 complex tumor spheroid viability | 1.72 |
| Cc1cc(C)c(CNC(=O)c2cc(-c3ccc(CN4CCOCC4)cc3)cc3c2cnn3C2CCCC2)c(=O)[nH]1 + CC[C@@]1(O)C(=O)OCc2c1cc1n(c2=O)Cc2cc3c(CN(C)C)c(O)ccc3nc2-1 | SW 1271 complex tumor spheroid viability | 6.12 |
| CC(C)n1c(=O)n(C)c2cnc3cc(F)c(-c4ccc(OCCCN5CCCCC5)nc4)cc3c21 + CC[C@@]1(O)C(=O)OCc2c1cc1n(c2=O)Cc2cc3c(CN(C)C)c(O)ccc3nc2-1 | SW 1271 complex tumor spheroid viability | 7.25 |
| COc1cc(C)[nH]c(=O)c1CN1CCc2c(Cl)cc(C(OC)C3COC3)c(Cl)c2C1=O (stereo unspecified) + CC[C@@]1(O)C(=O)OCc2c1cc1n(c2=O)Cc2cc3c(CN(C)C)c(O)ccc3nc2-1 | SW 1271 complex tumor spheroid viability | 13.7 |
| [2H]c1nc(C)nc([2H])c1-c1cc(NC[C@@H](C)c2cccc3c(C(=O)NC)ccnc23)ncn1 + CC[C@@]1(O)C(=O)OCc2c1cc1n(c2=O)Cc2cc3c(CN(C)C)c(O)ccc3nc2-1 | SW 1271 complex tumor spheroid viability | 14.2 |

# ---- query compound ----
q: Dear colleague, I am looking for the recorded viability, T/C of the following compound: CC1COCCN1c1cc(-c2ccnn2C)c2ccnc(-c3ccn[nH]3)c2n1 (stereo unspecified) + CC[C@@]1(O)C(=O)OCc2c1cc1n(c2=O)Cc2cc3c(CN(C)C)c(O)ccc3nc2-1
a: 1.02
